- RUN_DESCRIPTION: Cell Viability - Jurkat (AID 426);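 also: potency is read from the fitted curve at half-maximal effect; cells exposed to compound for 40 hours at 37 °C before ATP read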
- ASSAY_CONDITIONS: qHTS
Records with an inconclusive call do not appear. Calls of active or inactive are those of the source.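 The calls were made as follows: active = dose-dependent loss of cell ATP signal giving a full or clear fitted curve, ranked by lower potency value; inconclusive = weak partial curve or response only at the top dose; inactive = no loss of viability signal.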
Give one outcome, nothing more. List: active, inactive

NC(N)=NC(=O)c1nc(Cl)c(N)nc1N : inactive
Cn1cnc([N+](=O)[O-])c1Sc1ncnc2nc[nH]c12 : active
CC(=O)Oc1ccccc1C(=O)O : inactive
NS(=O)(=O)c1cc2c(cc1Cl)NC=NS2(=O)=O : inactive
O=c1[nH]cnc2[nH]ncc12 : inactive
NC(=O)c1cnccn1 : inactive

[Q] Which result was noted for this molecule in the test: CCCC(CCC)C(=O)O
[A] inactive

* * *

- RUN_DESCRIPTION: Quantitative High-Throughput drug screen in 47 multiple myeloma cell lines against the NCATS MIPE library collection: Karpas25_ECACC cell viability assay (AID 1918968; also: nearly all actives have a fitted effect of over 35% in size)
- ASSAY_CONDITIONS: Karpas25 myeloma viability, CellTiter-Glo ATP, 48 h; series mostly up to 45.8 µM
Inconclusive results are not listed. The source made the active and inactive calls. Calls come from the whole dose curve; as a rule, active = well fitted cell-killing curve with a large enough effect; inconclusive = small, poorly fitted or top-dose-only effect, or effect the other way; inactive = no such curve, though single readings can be large or run the other way.
Thanks in advance; please answer with one of these: active, inactive

COc1ccc(CC2=NN3C([C@@H](CCc4ccccc4)[C@@H](C)O)=NC(C)C3C(=O)N2)cc1OC (some centres undefined) : inactive
CCCc1nc2c(C)cc(-c3nc4ccccc4n3C)cc2n1Cc1ccc(-c2ccccc2C(=O)O)cc1 : inactive
O=c1ncn2nc(Sc3ccc(F)cc3F)ccc2c1-c1c(Cl)cccc1Cl : active
O=C(C=Cc1ccc(/C=C/C(=O)Nc2ccc(C3=NCCN3)cc2)cc1)Nc1ccc(C2=NCCN2)cc1 : inactive
Cn1cnc([N+](=O)[O-])c1Sc1ncnc2nc[nH]c12 : active
CCCS(=O)(=O)Nc1ccc(F)c(C(=O)c2c[nH]c3ncc(Cl)cc23)c1F : active

[Q] What classification did COc1cc(Oc2ccnc3cc(OC)c(OC)cc23)ccc1NC(=O)NC(C)c1nccs1 (centres undefined) end up with in this test?
[A] active

[Q] Hey, what did the test say about Cc1cc([C@@H](C)Nc2ccccc2C(=O)O)c2nc(N3CCOCC3)cc(=O)n2c1 ?
[A] active

[Q] Which result was noted for this compound in the test: CCc1ccc(CCOc2ccc(CC3SC(=O)NC3=O)cc2)nc1 (centres undefined)
[A] inactive

* * *

- RUN_DESCRIPTION: Cell Proliferation Assay Versus the ED40515 IL2 Dependent ATL cell lines (AID 1053195)
- ASSAY_CONDITIONS: ED40515 IL2-dependent ATL cells
Activity calls are given as the source filed them. Calls come from the whole dose curve.
Measured Potency, listed per entry for reference.

Here's what some known entries look like.
Cc1cc(SCc2sc(-c3ccc(C(F)(F)F)cc3)nc2C)ccc1OCC(=O)O : 26.4 µM (active)
CCC(C)N(C)C(=O)c1cc2ccccc2c(-c2ccccc2Cl)n1 (stereo not given) : 11.8 µM (active)
NC(=O)c1ccc(I)c([N+](=O)[O-])c1 : 37.2 µM (active)
O=C(OCC#CCSc1nnc(-c2ccc3ccccc3c2)o1)c1cc2ccccc2s1 : 11.8 µM (active)
C#Cc1cccc(Nc2ncnc3cc(OCCOC)c(OCCOC)cc23)c1 : 9.35 µM (active)
Oc1cccc(-c2nc(N3CCOCC3)c3oc4ncccc4c3n2)c1 : 0.743 µM (active)

Input CC1(C)SCCN(S(=O)(=O)c2ccc(OCC#CCO)cc2)[C@@H]1C(=O)NO . Output Potency: 23.5 µM (active)

Potency reading for C[C@H](NC(=O)Cc1cc(F)cc(F)c1)C(=O)N[C@@H]1C(=O)N(C)c2ccccc2-c2ccccc21 : 20.9 µM (active)

Summary for this molecule, CN(C)C(=O)c1ccc(S(=O)(=O)c2ccc(NC(=O)[C@@](C)(O)C(F)(F)F)c(Cl)c2)cc1 : Potency is 0.332 µM (active)

// sample O=C(O)CCc1ccc(NCc2cccc(Oc3ccccc3)c2)cc1 , its Potency was 0.0833 µM (active)
